Values compiled from patent US9440938B2.

- Tested target: DP receptor (Homo sapiens)
- Construct: endogenous in cells; host or cells: washed platelets from peripheral blood of a healthy volunteer
- Sequence (Q13258 whole entry): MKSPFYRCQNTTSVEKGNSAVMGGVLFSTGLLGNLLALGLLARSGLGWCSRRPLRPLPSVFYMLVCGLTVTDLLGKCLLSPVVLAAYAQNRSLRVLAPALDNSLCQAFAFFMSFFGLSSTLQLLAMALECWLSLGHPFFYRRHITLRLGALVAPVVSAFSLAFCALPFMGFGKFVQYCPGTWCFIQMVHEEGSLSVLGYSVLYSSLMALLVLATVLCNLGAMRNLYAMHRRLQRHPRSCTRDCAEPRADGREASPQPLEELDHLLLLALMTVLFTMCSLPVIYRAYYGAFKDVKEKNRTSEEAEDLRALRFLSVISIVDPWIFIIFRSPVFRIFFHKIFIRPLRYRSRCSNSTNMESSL
- Test summary: cAMP assay with washed platelet (DP inhibitory activity in vitro)
- Format: cell-based
- Test settings: read-out: IC50 (50% DP-inhibitory concentration in the cAMP assay); washed human platelets, 100 nM PGD2, cAMP by HTRF
pIC50: −log10 of the molar value.
The reader will find reported pIC50 values listed item by item below.
Readout type: pIC50

1) CCCNC(=O)c1ccc(N2CCN(S(=O)(=O)c3ccc(OC(C)C)cc3)CC2)cc1OCC(=O)O [II-83]: 5.70
2) CC(C)Oc1ccc(S(=O)(=O)N2CCN(c3ccc(C(=O)Nc4nncs4)c(OCC(=O)O)c3)CC2)cc1 [II-110]: 6.44
3) CC(C)Oc1ccc(S(=O)(=O)N2CCN(c3ccc(Oc4ccccc4)c(OCC(=O)O)c3)CC2)cc1 [II-79]: 5.64
4) CC(C)Oc1ccc(S(=O)(=O)N2CCN(c3cc(OCC(=O)O)cc(-c4ccoc4)c3)CC2)cc1 [II-38]: 6.19

###

The reader will find reported inhibition in vivo at 10 mg/kg values listed item by item below.
- System: OVA asthma model of rat
- Test summary: Test using OVA asthma model of rat (airway hyperresponsiveness, infiltration of inflammatory cells, mucus-secretion)
- Type: in vivo, Brown Norway (BN) Rats
- Test settings: po, 72 h, BN rats, 10 mg/kg p.o. once a day for three days, total cell number in bronchoalveolar washings against control group, read-out: inhibition rate (%) infiltration of inflammatory cells
- Method: Test Using OVA Asthma Model of Rat Brown Norway (BN) Rats were sensitized by i.p. administration of 0.1 mg/mL of ovalbumin (OVA) and 1 mg of aluminum hydroxide gel. […] After the measurement of increased hyperresponsive airway was completed, bronchoalveoli of the rats were washed with 5 mL of saline three times. Total cell number in the washings was counted by a hemacytometer under light microscope, and inhibition rates of infiltration of inflammatory cells against the control group were calculated. […]
Readout type: inhibition in vivo at 10 mg/kg (%)

1. CC(C)Oc1ccc(S(=O)(=O)N2CCN(c3cc(Cl)cc(OCC(=O)O)c3)CC2)cc1: 37
2. CC(C)Oc1ccc(S(=O)(=O)N2CCN(c3ccc(C#N)c(OCC(=O)O)c3)CC2)cc1: 57
3. CC(C)Oc1ccc(S(=O)(=O)N2CCN(c3cc(F)c(F)c(OCC(=O)O)c3)CC2)cc1: 67
4. CC(C)Oc1ccc(S(=O)(=O)N2CCN(c3cc(OCC(=O)O)cc(C(F)(F)F)c3)CC2)cc1: 51
5. CC(C)Oc1ccc(S(=O)(=O)N2CCN(c3ccc(NC(=O)c4ccco4)c(OCC(=O)O)c3)CC2)cc1: 67
6. CC(C)Oc1ccc(S(=O)(=O)N2CCN(c3ccc(Br)c(OCC(=O)O)c3)CC2)cc1: 57
7. CC(C)Oc1ccc(S(=O)(=O)N2CCN(c3ccc(Cl)c(OCC(=O)O)c3)CC2)cn1: 49
8. CC(C)Oc1ccc(S(=O)(=O)N2CCN(c3ccc([N+](=O)[O-])c(OCC(=O)O)c3)CC2)cc1: 46
9. CC(C)Oc1ccc(S(=O)(=O)N2CCN(c3ccc(Cl)c(OCC(=O)O)c3)CC2C)cc1 (stereo not shown): 33
10. CC(C)Oc1ccc(S(=O)(=O)N2CCN(c3ccc(-c4cocn4)c(OCC(=O)O)c3)CC2)cc1: 46
